protocol: Mouse PK test: plasma concentration after intravenous or oral administration
Assay type: in vivo, mice (C57BL/6J)
conditions: male, C57BL/6J, in vivo, iv, 1 mg/kg
Starred links: 1 amine or outer side, 2 acyl side, 3 side chain; linkers in the order of their positions; H or OH if unused. Non-standard residues stand in square brackets, D forms with d. Residues, ends and D or L forms follow the SMILES beside them. *: point of attachment. NMedβ3hAla = C[C@H](CC(=O)[*:2])N(C)[*:1]; NMeF = CN[C@@H](Cc1ccccc1)C(=O)O; NMeI = CC[C@H](C)[C@H](NC)C(=O)O; NMeβAla = CN(CCC(=O)[*:2])[*:1]; NMeL = CN[C@@H](CC(C)C)C(=O)O; Sar = CNCC(=O)O; tBu = CC(C)(C)*
observed property: half-life (h)
Answer format: numeric, h implied, no suffix.

Entry CC[C@H](C)[C@H]1C(=O)N[C@@H](CC(C)C)C(=O)N(C)CC(=O)N(C)[C@@H](CC(C)C)C(=O)N[C@@H](CC(C)C)C(=O)N(C)[C@H](C)CC(=O)N(C)[C@@H](CC(C)C)C(=O)N(C)CCC(=O)N(C)[C@@H](CC(C)C)C(=O)N[C@@H](COC(C)(C)C)C(=O)N(C)[C@@H](Cc2ccccc2)C(=O)N(C)CCC(=O)N(C)[C@@H](Cc2ccccc2)C(=O)N1C [pd144] (cyclo(L[Sar][NMeL]L[NMedβ3hAla][NMeL][NMeβAla][NMeL]S(tBu)[NMeF][NMeβAla][NMeF][NMeI])) has what half-life? 5.3

* * *

protocol: Membrane permeability test using Caco-2 cells with preincubation
Assay type: in vitro ADME
conditions: Caco-2; preincubation 20 to 24 hours; Apical FaSSIF/HBSS pH 6.0, Basal HBSS 4% BSA pH 7.4; 180 minutes; read-out: Caco2 Papp
Starred links: 1 amine or outer side, 2 acyl side, 3 side chain; linkers in the order of their positions; H or OH if unused. Positions of bridges follow the written chain, without caps; N, C: chain ends. Non-standard residues stand in square brackets, D forms with d. Residues, ends and D or L forms follow the SMILES beside them. *: point of attachment. NMedβ3hAla = C[C@H](CC(=O)[*:2])N(C)[*:1]; NMeF = CN[C@@H](Cc1ccccc1)C(=O)O; NMeGABA = CN(CCCC(=O)[*:2])[*:1]; NMeI = CC[C@H](C)[C@H](NC)C(=O)O; NMeT = CN[C@H](C(=O)O)[C@@H](C)O; hPhe = N[C@@H](CCc1ccccc1)C(=O)O; NMeβAla = CN(CCC(=O)[*:2])[*:1]; NMeD = CN[C@@H](CC(=O)O)C(=O)O; NMeL = CN[C@@H](CC(C)C)C(=O)O; NMeV = CN[C@H](C(=O)O)C(C)C; d(β3hA) = C[C@@H](N)CC(=O)O; NMeAbu = CC[C@H](NC)C(=O)O; NMeA = CN[C@@H](C)C(=O)O; Piperidide = C1CCN(*)CC1; dNMeA = CN[C@H](C)C(=O)O; Abu = CC[C@H](N)C(=O)O; NBuGly = CCCCNCC(=O)O; βAla = NCCC(=O)O; Sar = CNCC(=O)O; tBu = CC(C)(C)*
Give measured Papp A→B for each item. Keep answers brief.
Answer format: numeric, ×10⁻⁶ cm/s implied, no suffix.

Entry CC[C@@H]1NC(=O)[C@H](C)N(C)C(=O)[C@H](CC(C)C)N(C)C(=O)[C@H]([C@@H](C)O)N(C)C(=O)[C@H](CC(C)C)N(C)C(=O)CCNC(=O)[C@H](Cc2ccccc2)N(C)C(=O)CN(C)C(=O)C[C@@H](C(=O)N2CCCCC2)NC(=O)[C@H](C(C)C)N(C)C(=O)[C@H](C)N(C)C(=O)[C@@H]2CCCN2C(=O)[C@H](C(C)C)NC(=O)[C@H](Cc2ccccc2)N(C)C1=O [pd005] ([Sar][NMeF][βAla][NMeL][NMeT][NMeL][NMeA][Abu][NMeF]VP[NMeA][NMeV]D-Piperidide; lactam N-14) has what Papp A→B? 0.05

Entry CC[C@@H]1NC(=O)[C@H](C(C)C)NC(=O)[C@H]([C@@H](C)CC)N(C)C(=O)[C@H](CCc2ccccc2)NC(=O)[C@H](Cc2ccccc2)N(C)C(=O)[C@H]([C@@H](C)CC)NC(=O)[C@H](CC(C)C)N(C)C(=O)[C@H](CC(C)C)NC(=O)CCN(C)C(=O)C[C@@H](C)N(C)C(=O)[C@H](CC(C)C)N(C)C(=O)CNC(=O)[C@@H]2CCCN2C(=O)[C@H](CC(C)C)N(C)C1=O [pd064] (cyclo([Abu][NMeL]PG[NMeL][NMedβ3hAla][NMeβAla]L[NMeL]I[NMeF][hPhe][NMeI]V)) has what Papp A→B? 0.04

Entry CC[C@H]1C(=O)N(C)[C@H](C)CC(=O)N(C)[C@H](C)C(=O)N(C)[C@@H](C)C(=O)N(C)[C@@H](Cc2ccccc2)C(=O)N[C@@H](C(C)C)C(=O)N(C)[C@@H](CC(C)C)C(=O)N(C)[C@@H]([C@@H](C)O)C(=O)N(C)CC(=O)N[C@@H](C)C(=O)N(C)[C@@H](CC(C)C)C(=O)N[C@@H](COC(C)(C)C)C(=O)N(C)[C@@H](Cc2ccccc2)C(=O)N1C [pd150] (cyclo(A[NMeL]S(tBu)[NMeF][NMeAbu][NMedβ3hAla][dNMeA][NMeA][NMeF]V[NMeL][NMeT][Sar])) has what Papp A→B? 0.29

Entry CC[C@H](C)[C@@H]1NC(=O)[C@H](C)N(C)C(=O)[C@H]([C@@H](C)O)NC(=O)[C@H](CC(C)C)N(C)C(=O)[C@H](CC)N(C)C(=O)[C@H](Cc2ccccc2)N(C)C(=O)[C@H](C)NC(=O)[C@H](Cc2ccccc2)N(C)C(=O)[C@H](C)N(C)C(=O)[C@H](CC(C)C)N(C)C(=O)[C@H](CC(C)C)NC(=O)CCCN(C)C(=O)C[C@@H](C(=O)N2CCCCC2)NC(=O)[C@H](CC(C)C)N(C)C1=O [pd041] ([NMeGABA]L[NMeL][NMeA][NMeF]A[NMeF][NMeAbu][NMeL]T[NMeA]I[NMeL]D-Piperidide; lactam N-14) has what Papp A→B? 0.13

Entry CC(C)C[C@@H]1NC(=O)[C@H](CC(C)C)N(C)C(=O)[C@H]([C@@H](C)O)NC(=O)[C@H](C(C)C)N(C)C(=O)[C@H](Cc2ccccc2)N(C)C(=O)[C@@H](C(C)C)NC(=O)C[C@@H](C(=O)N2CCCCC2)N(C)C(=O)[C@H](C)N(C)C(=O)[C@H](Cc2ccccc2)N(C)C(=O)[C@H](C)NC(=O)[C@H](COC(C)(C)C)NC(=O)[C@H](CC(C)C)N(C)C(=O)[C@H](C(C)C)NC(=O)CN(C)C1=O [pd086] ([dV][NMeF][NMeV]T[NMeL]L[Sar]V[NMeL]S(tBu)A[NMeF][NMeA][NMeD]-Piperidide; lactam N-14) has what Papp A→B? 0.06

Entry CCCCN1CC(=O)N(C)[C@@H](CC)C(=O)N[C@@H](CC(C)C)C(=O)N[C@H](C(=O)N2CCCCC2)CC(=O)N(C)[C@@H](C)C(=O)N[C@@H]([C@@H](C)CC)C(=O)N(C)[C@@H](Cc2ccccc2)C(=O)N(C)[C@@H](CC(C)C)C(=O)N[C@@H](C(C)C)C(=O)N(C)CC(=O)N[C@@H](CC(C)C)C(=O)N(C)[C@@H](Cc2ccccc2)C(=O)N(C)[C@@H](C)C(=O)N[C@@H](CC(C)C)C1=O [pd018] ([NMeA]I[NMeF][NMeL]V[Sar]L[NMeF][NMeA]L[NBuGly][NMeAbu]LD-Piperidide; lactam N-14) has what Papp A→B? 0.11

Entry CC[C@H](C)[C@@H]1NC(=O)[C@H](CC(C)C)N(C)C(=O)C[C@@H](C)NC(=O)[C@H](C(C)C)N(C)C(=O)[C@H](COC(C)(C)C)NC(=O)[C@H](CC)N(C)C(=O)[C@H](Cc2ccccc2)N(C)C(=O)[C@H](CC(C)C)NC(=O)[C@@H]2CCCN2C(=O)[C@H]([C@@H](C)O)N(C)C(=O)[C@H](CC(C)C)N(C)C(=O)[C@H](CC)N(C)C(=O)[C@H](C(C)C)N(C)C(=O)[C@H](CC(C)C)N(C)C1=O [pd061] (cyclo(I[NMeL][NMeV][NMeAbu][NMeL][NMeT]PL[NMeF][NMeAbu]S(tBu)[NMeV][d(β3hA)][NMeL])) has what Papp A→B? 0.51
